- assayed target: UniProt:P27338
- protocol description: Inhibition of human recombinant MAOB expressed in baculovirus-infected BTI insect cells after 1 hr by Cheng-Prusoff equation analysis
Listed compounds paired with reported Ki
readout kind: Ki (nM)

[[record]]
substance_smiles = "Cc1cc2c(nn1)-c1cc(OCc3cccc(Cl)c3)ccc1C2=O"
readout_kind = "Ki"
recorded_measurement = 160

[[record]]
substance_smiles = "Cc1cccc(COc2ccc3c(c2)-c2nnc(C)cc2C3=O)c1"
readout_kind = "Ki"
recorded_measurement = 480


----------
- assayed target: MAO-B (amine oxidase [flavin-containing] B) (Homo sapiens)
- Sequence (P27338 whole entry): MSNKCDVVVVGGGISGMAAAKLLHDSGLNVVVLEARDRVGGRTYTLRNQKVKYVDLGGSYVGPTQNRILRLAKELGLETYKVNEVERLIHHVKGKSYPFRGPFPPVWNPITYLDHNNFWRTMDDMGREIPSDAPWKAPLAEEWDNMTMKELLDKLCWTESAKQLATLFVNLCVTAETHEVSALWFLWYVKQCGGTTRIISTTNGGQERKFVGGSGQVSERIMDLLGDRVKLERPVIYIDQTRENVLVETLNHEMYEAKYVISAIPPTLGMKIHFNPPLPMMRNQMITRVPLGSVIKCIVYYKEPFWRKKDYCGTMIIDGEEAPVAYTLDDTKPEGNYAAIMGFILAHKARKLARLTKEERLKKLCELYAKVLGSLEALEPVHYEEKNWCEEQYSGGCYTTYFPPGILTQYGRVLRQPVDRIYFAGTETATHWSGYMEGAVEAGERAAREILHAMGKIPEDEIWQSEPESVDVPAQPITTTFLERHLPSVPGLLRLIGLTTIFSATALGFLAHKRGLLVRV
- protocol description: Inhibition of human recombinant MAOB expressed in baculovirus-infected BTI insect cells at 10 uM after 1 hr by MAO-GLO two-step bioluminescence assay
Assign 1 to entries whose inhibition at 1 h, 10 µM meets or exceeds 60%; assign -1 to the rest.

[[record]]
substance_smiles = "O=C1c2ccc(OCc3ccccc3)cc2-c2nnc(-c3cccc(C(F)(F)F)c3)cc21"
category_label = -1

[[record]]
substance_smiles = "Cc1cccc(COc2ccc3c(c2)-c2nnc(C)cc2C3=O)c1"
category_label = 1

[[record]]
substance_smiles = "Cc1cc2c(nn1)-c1cc(OCCCC(F)(F)F)ccc1C2=O"
category_label = 1

[[record]]
substance_smiles = "O=C1c2ccc(OCCCC(F)(F)F)cc2-c2nnc(-c3cccc(C(F)(F)F)c3)cc21"
category_label = -1

[[record]]
substance_smiles = "COc1ccc2c(c1)-c1nnc(-c3cccc(C(F)(F)F)c3)cc1C2=O"
category_label = -1

[[record]]
substance_smiles = "Cc1cc2c(nn1)-c1cc(OCc3cccc(Cl)c3)ccc1C2=O"
category_label = 1


----------
- assayed target: Amine oxidase [flavin-containing] B (Homo sapiens, UniProt P27338)
- Sequence (P27338 whole entry): as above
- protocol description: Inhibition of human recombinant MAOB expressed in baculovirus-infected BTI insect cells by Lineweaver-Burk plot analysis
pKi: −log10 of the molar value.
readout kind: pKi

[[record]]
substance_smiles = "Cc1cc2c(nn1)-c1cc(OCc3cccc(Cl)c3)ccc1C2=O"
readout_kind = "pKi"
recorded_measurement = 6.96


----------
- assayed target: Tryptophan 2,3-dioxygenase (Ralstonia metallidurans (strain CH34 / ATCC 43123 / DSM 2839)) (UniProt Q1LK00)
- Sequence (whole entry): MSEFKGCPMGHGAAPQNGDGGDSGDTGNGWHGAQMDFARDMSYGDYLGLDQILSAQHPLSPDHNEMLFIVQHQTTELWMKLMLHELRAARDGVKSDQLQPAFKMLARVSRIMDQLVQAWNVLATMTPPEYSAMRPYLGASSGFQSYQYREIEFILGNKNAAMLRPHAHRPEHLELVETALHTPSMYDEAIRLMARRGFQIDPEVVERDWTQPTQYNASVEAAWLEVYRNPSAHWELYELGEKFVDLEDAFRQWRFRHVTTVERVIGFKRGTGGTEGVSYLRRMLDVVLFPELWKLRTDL
- protocol description: Inhibition of Ralstonia metallidurans TDO using L-tryptophan as substrate at 25 uM by fluorimetric method
- cond: Cupriavidus metallidurans
Listed compounds paired with reported inhibition
readout kind: inhibition

[[record]]
substance_smiles = "Cc1cccc(COc2ccc3c(c2)-c2nnc(C)cc2C3=O)c1"
readout_kind = "inhibition"
recorded_measurement = "66%"

[[record]]
substance_smiles = "COc1ccc2c(c1)-c1nnc(-c3cccc(C(F)(F)F)c3)cc1C2=O"
readout_kind = "inhibition"
recorded_measurement = "18%"

[[record]]
substance_smiles = "O=C1c2ccc(OCCCC(F)(F)F)cc2-c2nnc(-c3cccc(C(F)(F)F)c3)cc21"
readout_kind = "inhibition"
recorded_measurement = "20%"

[[record]]
substance_smiles = "Cc1cc2c(nn1)-c1cc(OCCCC(F)(F)F)ccc1C2=O"
readout_kind = "inhibition"
recorded_measurement = "31%"

[[record]]
substance_smiles = "Cc1cc2c(nn1)-c1cc(OCc3cccc(Cl)c3)ccc1C2=O"
readout_kind = "inhibition"
recorded_measurement = "19%"

